Target: T1, RaaS R140A (Mycobacterium tuberculosis, UniProt O86312 1-212, R140A)
T1 sequence: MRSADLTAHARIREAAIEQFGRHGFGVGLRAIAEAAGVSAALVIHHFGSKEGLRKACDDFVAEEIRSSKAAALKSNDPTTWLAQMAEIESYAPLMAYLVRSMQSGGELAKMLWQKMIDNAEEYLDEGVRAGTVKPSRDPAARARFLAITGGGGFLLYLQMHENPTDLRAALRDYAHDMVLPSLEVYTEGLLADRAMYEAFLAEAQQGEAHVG
Assay: fluorescence anisotropy; 4 nM DNA
Conditions: protein: recombinant; chain copies: 2
PROPERTY: pKd
Scale: negative log10 of molar concentration, which is what pKd denotes.

Requested field: pKd. Item: Pr14F/Pr14R (ATTO 647N) (dsDNA) DNA 1: GGGATGAACGTACGTTTAATATCCTGAACATGCGTTCAG DNA 2: GGGCTGAACGCATGTTCAGGATATTAAACGTACGTTCAT
6.18
